Consider the following binders and their measured t½ readings.
# TEST_TARGET: T1, human IL-25 expressed with a C-terminal myc-myc-hexahistidine tag (human)
# T1 construct: also called human IL-25-MMH; hIL-25-MMH
# T1 chain: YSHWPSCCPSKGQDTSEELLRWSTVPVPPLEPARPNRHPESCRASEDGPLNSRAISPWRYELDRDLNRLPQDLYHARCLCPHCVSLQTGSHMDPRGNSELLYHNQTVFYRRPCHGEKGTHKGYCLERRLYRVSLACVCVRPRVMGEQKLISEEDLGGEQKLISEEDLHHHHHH
# ASSAY_COMMENT: SPR Biacore, captured mAb, 25°C;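 also: biacore 4000 SPR with IL-25-MMH as analyte over purified anti-IL-25 antibodies, association and dissociation rates derived from fitting sensorgrams to a 1:1 binding model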

BINDER	t½
H4H10901P (antibody, human IgG4, V domains shown) VH: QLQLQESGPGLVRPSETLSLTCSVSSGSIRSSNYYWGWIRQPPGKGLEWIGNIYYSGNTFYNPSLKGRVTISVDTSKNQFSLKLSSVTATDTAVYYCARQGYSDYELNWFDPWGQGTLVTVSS VL: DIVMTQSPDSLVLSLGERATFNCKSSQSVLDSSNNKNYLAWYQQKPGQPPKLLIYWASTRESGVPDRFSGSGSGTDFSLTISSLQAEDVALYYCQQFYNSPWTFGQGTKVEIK	3.32 h
H4H10876P (antibody, human IgG4, V domains shown) VH: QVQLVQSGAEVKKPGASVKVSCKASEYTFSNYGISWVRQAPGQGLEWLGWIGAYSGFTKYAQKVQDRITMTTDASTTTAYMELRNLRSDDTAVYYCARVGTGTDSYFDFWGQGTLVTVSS VL: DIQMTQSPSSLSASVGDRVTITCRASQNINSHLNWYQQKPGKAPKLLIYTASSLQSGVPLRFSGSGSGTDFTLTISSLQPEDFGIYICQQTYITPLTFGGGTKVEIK	4.03 h
H4H10883P (antibody, human IgG4, V domains shown) VH: QVQLQESGPGLVKSSETLSLTCTVSGGSISSYYWSWIRQPPGKGLEWIGFIYYSGSTNYNPSLKSRVTFSVDTSKNHFSLKLNSVTATDTAVYYCARHYFDSGTYELGPFDYWGQGTLVTVSS VL: DIVMTQSPDSLAVSLGERATINCKSSQNILLTSSNKNYLTWYQQKPGQPPKLLIYWASIRESGVPDRFSGSGSGTDFTLTISSLQAEDVALYFCQQYYITPFTFGPGTKVDIK	19.2 h
H4H10907P (antibody, human IgG4, V domains shown) VH: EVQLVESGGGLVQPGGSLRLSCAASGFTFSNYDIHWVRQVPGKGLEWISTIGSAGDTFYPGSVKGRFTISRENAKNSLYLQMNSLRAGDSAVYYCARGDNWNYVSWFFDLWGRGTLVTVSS VL: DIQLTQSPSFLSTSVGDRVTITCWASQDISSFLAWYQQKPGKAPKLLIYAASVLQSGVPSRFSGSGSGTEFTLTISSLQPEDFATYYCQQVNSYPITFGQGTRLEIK	2.97 h
